System: SNB-19 CNS
Assay: NCI-60 one-dose screen, 48 h
Conditions: 10 µM unless noted
The panel holds about 83,000 compounds, 20% with a hit somewhere; the sample as a whole holds those more often. Activity calls are given as the source filed them. The calls were made as follows: active = growth percent below 10; inactive = the rest.
Just give me one of these, please: 1 for active, 0 for inactive

1. CCOC(=O)[C@@H]1CSC(CC)=C(C(=O)O)N1 | 0
2. N=C(N)c1ccc(-c2ccc(-c3ccccc3)o2)cc1 | 1
3. Oc1c(I)cc(I)cc1CNCc1ccccn1 | 0
4. N#CSCC1CC(O)(c2ccccc2)CC(c2ccc(F)cc2)O1 (stereo not given) | 0
5. COc1ccc(OC)c(-c2nc(SCC(=O)c3ccc(C#N)cc3)[nH]c(=O)c2C#N)c1 | 0
6. Cn1ccc(=O)c(C(=O)Nc2nsc3ccc([N+](=O)[O-])cc23)c1 | 0
7. CCOC(=O)C1=C(c2ccccc2)N=C2SC=C(c3ccc(Cl)cc3)N2C1c1ccc(Cl)cc1 (stereo not given) | 0
8. COc1ccc(-c2nn(-c3cccc(Cl)c3)cc2-c2cc(-c3ccc(Br)cc3)nc(N)n2)cc1 | 0
9. O=C(O)CCCN1C(=O)/C(=C/c2cn(-c3ccccc3)nc2-c2ccc([N+](=O)[O-])cc2)SC1=S | 0

Query string: What outcome does the record of this test show for O=C(CN1CCOCC1)Nc1nc(-c2cc3ccccc3oc2=O)cs1 ?
Result string: 0
